# ASSAY_DETAILS: chemical genetic growth profiling, strain panel (AID 1159580);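 note: tested at 20 µM; growth read once vehicle control cultures reached saturation at 30 °C; 1 = growth at the plate median or of vehicle wells; lower values mean less growth of the strain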
# TEST_CONDITIONS: S. cerevisiae deletion strains, growth OD, locus YNL322C, strain KRE1, active compounds read low
The whole screen tested about 5,500 compounds, of which about 2,000 (36%) were called active. Another 18% or so got no clear call; they are omitted. The list shows a part of the results.
MEASURED_PARAMETER: normalized growth

COMPOUND | MEASURED_PARAMETER | NUMERIC_RESULT
CCOC(=O)CSC(=S)NCc1ccc(C)cc1 | normalized growth | 0.925
C=C1C([C@]2(C)C(CC(=O)OC)[C@@](C)(COC(C)=O)OC(=O)C[C@@H]2OC(C)=O)[C@@H](OC=O)[C@H](OC(=O)C(O)C(C)CC)[C@@]2(C)[C@H](c3ccoc3)CC(=O)C12O (some centres undefined) | normalized growth | 1.01
COc1ccc2c3c1O[C@H]1C[C@@H](O)C=C[C@@]31CCN(C)C2 | normalized growth | 1.01
CCOC(=O)C(=O)C1(C(=O)OCC)Oc2cc(OC)cc(OC)c2C(=O)C1c1ccccc1 (centres undefined) | normalized growth | 0.983
CN1CCc2cc(O)c(O)cc2C(c2ccccc2)C1 (centres undefined) | normalized growth | 1
CC(=O)OCC(=O)[C@@]1(O)CCC2C3CCC4=CC(=O)CC[C@]4(C)C3C(=O)C[C@@]21C (some centres undefined) | normalized growth | 1.01
OC[C@H]1O[C@@H](n2cnc3c(Nc4ccccc4)ncnc32)C(O)[C@H]1O (some centres undefined) | normalized growth | 1.02
CCC(C)C(OC(C)=O)C(=O)OC1C(O)C2C3(C)C=CC(=O)C(C)(C)C3CC(OC(=O)C(O)C(C)C)C2(C)C23OC2CC(c2ccoc2)C13C (centres undefined) | normalized growth | 0.999
CCCN(CCC)CCc1ccc(O)c(O)c1 | normalized growth | 1.02
CCC(NC(C)C)C(O)c1ccc(O)c(O)c1 (centres undefined) | normalized growth | 0.992
COc1ccc2c(c1)OCc1c-2oc2cc(OC)ccc12 | normalized growth | 0.874
Nc1c(S(=O)(=O)O)cc(Nc2ccc(Nc3nc(Cl)nc(Nc4ccc(S(=O)(=O)O)cc4)n3)c(S(=O)(=O)O)c2)c2c1C(=O)c1ccccc1C2=O | normalized growth | 1.01
COc1cc(O)c(C(=O)/C=C/c2ccccc2)c(OC)c1 | normalized growth | 0.948
C=C1C2CC[C@H]3[C@]4(C)C[C@H](OC5OC(CO)C(OS(=O)(=O)O)C(OS(=O)(=O)O)C5OC(=O)CC(C)C)C[C@@H](C(=O)O)[C@H]4CC[C@]3(C2)[C@H]1O (some centres undefined) | normalized growth | 1.01
C=C(C)[C@@H]1[C@H]2OC(=O)[C@@H]1[C@]1(O)C[C@H]3O[C@]34C(=O)O[C@H]2[C@]14C | normalized growth | 0.994
CC1=C(CC(=O)O)c2cc(F)ccc2/C1=C\c1ccc(S(C)(=O)=O)cc1 | normalized growth | 1
COc1ccc2c(c1OC)C(=O)O[C@@H]2[C@H]1c2cc3c(cc2CCN1C)OCO3 | normalized growth | 1.01
CC(C[N+](C)(C)C)OC(N)=O (centres undefined) | normalized growth | 0.992
CO[C@H]1[C@H](O)[C@H](O[C@H]2CC[C@]3(C)C4CC[C@]5(C)C(C6=CC(=O)OC6)CC[C@]5(O)C4CC[C@@H]3C2)O[C@@H](C)[C@@H]1O (some centres undefined) | normalized growth | 1.01
Cc1cccc(C)c1NC(=O)C(C)Oc1ccc(Cl)cc1Cl (centres undefined) | normalized growth | 1
CC1=C(CC(=O)O)c2cc(F)ccc2/C1=C\c1ccc(S(C)=O)cc1 (centres undefined) | normalized growth | 1.01
CC(C)(O)[C@@H]1[C@H]2OC(=O)[C@@H]1[C@]1(O)C[C@H]3O[C@]34C(=O)O[C@H]2[C@]14C | normalized growth | 1
CC(C)(C)c1ccc(-c2nc(-c3cc(C(C)(C)C)c(O)c(C(C)(C)C)c3)cs2)cc1 | normalized growth | 1.01
CCOC(=O)C1CCN(C(=S)Nc2ccccc2C(F)(F)F)CC1 | normalized growth | 1.01
N#CCOc1ccc(Cl)cc1Cl | normalized growth | 0.96
CNC(C)[C@H](O)c1ccccc1 (some centres undefined) | normalized growth | 1.05
COC1=C(OC)C(=O)C(C/C=C(\C)CC/C=C(\C)CC/C=C(\C)CC/C=C(/C)CC/C=C(\C)CC/C=C(\C)CC/C=C(\C)CC/C=C(\C)CC/C=C(\C)CCC=C(C)C)=C(C)C1=O | normalized growth | 0.994
COc1ccc2c(c1OC)C(=O)O[C@H]2[C@H]1c2cc3c(cc2CCN1C)OCO3 | normalized growth | 1
C=CCN1CCc2c(cc(O)c(O)c2Cl)C(c2ccccc2)C1 (centres undefined) | normalized growth | 0.754
O=C(Oc1ccc(C(F)(F)F)cc1[N+](=O)[O-])c1c(F)cccc1F | normalized growth | 0.577
NCC1CCC(C(=O)O)CC1 (centres undefined) | normalized growth | 0.991
CCOC(=O)C1(O)Oc2cc(OC)cc(OC)c2C(=O)C1c1ccccc1 (centres undefined) | normalized growth | 0.991
C[N+](C)(C)CCOC(=O)CCC(=O)OCC[N+](C)(C)C | normalized growth | 0.992
CNCCc1ccc(O)c(O)c1 | normalized growth | 0.979
CCOC(=O)[C@H](CCc1ccccc1)N[C@H]1CCc2ccccc2N(CC(=O)O)C1=O | normalized growth | 0.98
CC(C)(C)c1cc(-c2csc(-c3ccc(Cl)cc3)n2)cc(C(C)(C)C)c1O | normalized growth | 1.01
C[N+](C)(C)CCOC(N)=O | normalized growth | 0.989
C[C@]12CC(=O)C3C(CC[C@@H]4C[C@H](O)CC[C@]34C)C1CC[C@]2(O)C(=O)CO (some centres undefined) | normalized growth | 0.998
COP(=O)(OC)OC=C(Cl)Cl | normalized growth | 0.985

----------
# ASSAY_DETAILS: chemical genetic growth profiling, strain panel (AID 1159580);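 note: tested at 20 µM; growth read once vehicle control cultures reached saturation at 30 °C; 1 = growth at the plate median or of vehicle wells; lower values mean less growth of the strain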
# TEST_CONDITIONS: S. cerevisiae deletion strains, growth OD, locus YBL061C, strain skt5
Hit rate of the full screen: of about 5,500 compounds, about 2,000 (36%) were called active. About 18% were inconclusive and are not listed. Cut-off read from the data, not from the text of the source: active = normalized growth mostly below about 0.91 (no sharp cut-off); inconclusive = no clear call, values can overlap the other calls; inactive = mostly above about 0.92. Some of the results follow.
Possible outcomes: Y = active, N = inactive

COMPOUND | GROUP_LABEL
COc1ccc2c(c1OC)C(=O)O[C@@H]2[C@H]1c2cc3c(cc2CCN1C)OCO3 | N
CCN(CC)CCNC(=O)c1cc(Br)c(N)cc1OC | N
CCN(CCO)CCCC(C)Nc1ccnc2cc(Cl)ccc12 (centres undefined) | N
CC(C[N+](C)(C)C)OC(N)=O (centres undefined) | N
CN1CCC(=C2c3ccccc3CC(=O)c3sccc32)CC1 | N
COc1ccc2c3c1O[C@H]1C[C@@H](O)C=C[C@@]31CCN(C)C2 | N
CN1CCC(=C2c3ccccc3Sc3ccccc32)CC1 | N
COc1ccc2c(c1OC)C(=O)O[C@H]2[C@H]1c2cc3c(cc2CCN1C)OCO3 | N
C[C@]12CCC(=O)C=C1CCC1C2CC[C@@]2(C)C1CC[C@@H]2O (some centres undefined) | N
CC(=O)[C@H]1CCC2C3CCC4=CC(=O)CC[C@]4(C)C3CC[C@@]21C (some centres undefined) | N
CCN(CC)CCCC(C)Nc1c2ccc(Cl)cc2nc2ccc(OC)cc12 (centres undefined) | N
CN1CCC(=C2c3ccccc3CCc3sccc32)CC1 | N
CCC(=O)O[C@H]1CCC2C3CCC4=CC(=O)CC[C@]4(C)C3CC[C@@]21C (some centres undefined) | Y
C[N+](C)(C)CCOC(N)=O | N

----------
# ASSAY_DETAILS: chemical genetic growth profiling, strain panel (AID 1159580);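 note: tested at 20 µM; growth read once vehicle control cultures reached saturation at 30 °C; 1 = growth at the plate median or of vehicle wells; lower values mean less growth of the strain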
# TEST_CONDITIONS: S. cerevisiae deletion strains, growth OD, locus YML016C, strain PPZ1
Among all 5,500 compounds or so, about 2,000 (36%) were called active. Inconclusive results (about 18%) are left out. Rule as the data show it: active = normalized growth mostly below about 0.91 (no sharp cut-off); inconclusive = no clear call, values can overlap the other calls; inactive = mostly above about 0.92. Some of the results follow.
Possible outcomes: True = active, False = inactive

COMPOUND | GROUP_LABEL
S=c1nc[nH]c2nc[nH]c12 | False
O=C1C=CC(=C(c2ccc(O)cc2)c2ccc(O)cc2)C=C1 | False
C=C(C)[C@@H]1[C@H]2OC(=O)[C@@H]1[C@]1(O)C[C@H]3O[C@]34C(=O)O[C@H]2[C@]14C | False
CC(CCc1ccccc1)NC(C)C(O)c1ccc(O)cc1 (stereo not given) | False
CC(C(=O)O)c1ccc(-c2ccccc2)c(F)c1 (stereo not given) | False
C[C@H]1CC2C([C@@H](O)C[C@@]3(C)C2CC[C@]3(O)C(=O)CO)[C@@]2(C)C=CC(=O)C=C12 (stereo not given in full) | False
COc1cc2c(cc1OC)Cc1cc(OC)c(OC)cc1Cc1cc(OC)c(OC)cc1C2 | False
Cc1cc(O)c(C)c(O)c1C(=O)O | False
Cc1cccc(C)c1OCC(C)N (stereo not given) | False
C[C@@H]1[C@H]2[C@H](O[C@@H]3O[C@H](CO)[C@@H](O)[C@H](O)[C@H]3O)OC=C(C(=O)O)[C@H]2C[C@@H]1O | False
CC(C)CC(NC(=O)C(Cc1ccccc1)NC(=O)CNC(=O)CNC(=O)C(N)Cc1ccc(O)cc1)C(=O)O (stereo not given) | False
COCCc1ccc(OCC(O)CNC(C)C)cc1 (stereo not given) | False
CCOC(=O)C(=O)C1(C(=O)OCC)Oc2cc(OC)cc(OC)c2C(=O)C1c1ccccc1 (stereo not given) | False
COc1ccc2c(c1OC)C(=O)O[C@@H]2[C@H]1c2cc3c(cc2CCN1C)OCO3 | False
CCOC(=O)C1(O)Oc2cc(OC)cc(OC)c2C(=O)C1c1ccccc1 (stereo not given) | False
CC(C(=O)O)c1cccc(C(=O)c2ccccc2)c1 (stereo not given) | False
CN(C)c1ccc(C(=C2C=CC(=[N+](C)C)C=C2)c2ccc(N(C)C)cc2)cc1 | True
ClC1=C(Cl)C2(Cl)C3C(Cl)C=CC3C1(Cl)C2(Cl)Cl (stereo not given) | False
CCCCCCCCCCCCCCCC(=O)OC/C=C(C)/C=C/C=C(C)/C=C/C1=C(C)CCCC1(C)C | False
CN[C@@H](C)[C@@H](O)c1ccccc1 | False
COc1ccc2c3c1O[C@H]1C[C@@H](O)C=C[C@@]31CCN(C)C2 | False
c1cncc(C2CCCCN2)c1 (stereo not given) | False
OCC(O)C(O)C(O)CO (stereo not given) | False
COc1ccc2c(c1OC)C(=O)O[C@H]2[C@H]1c2cc3c(cc2CCN1C)OCO3 | False
CC(=O)OCC(=O)[C@H]1CCC2C3CCC4=CC(=O)CC[C@]4(C)C3CC[C@@]21C (stereo not given in full) | False
CCOC(=O)c1c(C)cc(O)c(C=O)c1O | True
CC(=O)N[C@@H](CC(C)C)C(=O)O | False
CCOC(=O)c1c(C)cc(O)c(C)c1O | False
CC[C@H]1OC(=O)[C@H](C)[C@@H](O[C@H]2C[C@@](C)(OC)[C@@H](O)[C@H](C)O2)[C@H](C)[C@@H](O[C@@H]2O[C@H](C)C[C@H](N(C)C)[C@H]2O)[C@](C)(O)C[C@@H](C)CN(C)[C@H](C)[C@@H](O)[C@]1(C)O | False
CO[C@H]1[C@H](O)[C@H](O[C@H]2CC[C@]3(C)C4CC[C@]5(C)C(C6=CC(=O)OC6)CC[C@]5(O)C4CC[C@@H]3C2)O[C@@H](C)[C@@H]1O (stereo not given in full) | False
C[C@]12CC(=O)C3C(CC[C@@H]4C[C@H](O)CC[C@]34C)C1CC[C@]2(O)C(=O)CO (stereo not given in full) | False
CC(NCCc1ccc(O)cc1)C(O)c1ccc(O)cc1 (stereo not given) | False
CC1=C(/C=C/C(C)=C/C=C/C(C)=C/C=C/C=C(C)/C=C/C=C(C)/C=C/C23OC2(C)CC(O)CC3(C)C)C(C)(C)CC(O)C1 (stereo not given) | False
COc1ccc2c(c1)OCc1c-2oc2cc(OC)ccc12 | False
CC(=O)c1c(O)c(C)c(O)c2c1oc1c(C(C)=O)c(O)c(C)c(O)c12 | False
CCCCCCCCNC(C)C(O)c1ccc(SC(C)C)cc1 (stereo not given) | True
CN(C)CC/C=C1\c2ccccc2Sc2ccc(Cl)cc21 | False
CC1=C(/C=C/C(C)=C/C=C/C(C)=C/C=C/C=C(C)/C=C/C=C(C)/C=C/C2=C(C)C(=O)C(O)CC2(C)C)C(C)(C)CC(O)C1=O (stereo not given) | False
CCC(C)C(OC(C)=O)C(=O)OC1C(O)C2C3(C)C=CC(=O)C(C)(C)C3CC(OC(=O)C(O)C(C)C)C2(C)C23OC2CC(c2ccoc2)C13C (stereo not given) | False
CC(C(=O)O)c1cccc(Oc2ccccc2)c1 (stereo not given) | False
